# Tested on: primary human chondrocyte pellet cultures
# TEST_NAME: Chondrogenesis activity assay in primary human chondrocyte pellet cultures (proteoglycan (aggrecan) induction, Blyscan assay)
# Assay type: cell-based
# RUN_PARAMETERS: 336 h; proteoglycan (aggrecan) induction, primary human chondrocyte pellets, 2 weeks culture
I'd be grateful if you could share measured log10 of EC50 for these entries.
Base-10 log of EC50, unit µM.

Could you tell me which log10 of EC50 is on file for COc1nc(Cl)ccc1-c1cc(Cl)cc2c1[nH]c1c(C)nccc12 ?
0.56

Could you tell me which log10 of EC50 is on file for Cc1nccc2c1[nH]c1c(-c3ccc(CNC4CCCC4)cc3)cc(Cl)cc12 ?
0.18

Could you tell me which log10 of EC50 is on file for CCn1c2cnccc2c2cc(Cl)cc(-c3ccc(Cl)nc3Cl)c21 ?
-0.02

Could you tell me which log10 of EC50 is on file for Cc1nccc2c1[nH]c1c(-c3cccnc3OCc3ccccc3)cc(Cl)cc12 ?
1.32

Could you tell me which log10 of EC50 is on file for COc1ccc(-c2cc(Cl)cc3c4ccnc(C)c4n(C)c23)cc1 ?
0.60

Could you tell me which log10 of EC50 is on file for Cc1nccc2c1[nH]c1c(-c3ccc(OCCn4ccnc4)cc3)cc(Cl)cc12 ?
-0.08

Could you tell me which log10 of EC50 is on file for Cc1nccc2c1[nH]c1c(-c3ccnc(N4CCN(C)CC4)c3)cc(Cl)cc12 ?
0.11

Could you tell me which log10 of EC50 is on file for Cc1nccc2c1[nH]c1c(-c3ccc(OCC4(C)COC4)cc3)cc(Cl)c(C)c12 ?
-0.59

Could you tell me which log10 of EC50 is on file for CCn1c2c(-c3cnn(C)c3)cc(Br)cc2c2cc(C)nc(C)c21 ?
0.63
